details: human gut metagenome, 24 h, 2 µM; further: call rule not given here
quantityMeasured: Bacterial Biotransformation

CC(C)OC(=O)C(C)(C)Oc1ccc(C(=O)c2ccc(Cl)cc2)cc1 [FENOFIBRATE] = Compound NOT metabolized
COc1ccccc1OCC(O)COC(N)=O (stereo not drawn) = Compound NOT metabolized

---

assay: The drug is tested on Z-023 corresponding to metagenome with ENA study accession number: PRJEB37062 and ENA sample accession number: ERS12561822 for biotransformation under anaerobic condition. The drug concentrations were measured over 9 timepoints collected between 0 and 24 hours of incubation by liquid-chromatography-coupled mass spectrometry (LC–MS); conditions: 2 µM
quantityMeasured: Bacterial Biotransformation

Examples with their reported Bacterial Biotransformation follow.
NC12CC3CC(CC(C3)C1)C2 [AMANTADINE] = Compound NOT metabolized
CNS(=O)(=O)Cc1ccc2[nH]cc(CCN(C)C)c2c1.O=C(O)CCC(=O)O [SUMATRIPTAN SUCCINATE] = Compound NOT metabolized
CCN(CC)C(C)CN1c2ccccc2Sc2ccccc21 (stereo not given) [ETHOPROPAZINE] = Compound metabolized
CC(=O)OCC(=O)[C@@]12N=C(C)O[C@@H]1C[C@H]1[C@@H]3CCC4=CC(=O)C=C[C@]4(C)[C@H]3[C@@H](O)C[C@@]12C [DEFLAZACORT] = Compound metabolized

Now examine the next entry.
For record CN1C(C(=O)Nc2ccccn2)=C(O)c2sccc2S1(=O)=O [TENOXICAM] the listed Bacterial Biotransformation is Compound metabolized
